Assignment: determine reported Drug uptake for the given compounds.
# System: Lung
# PROCEDURE TEXT: Drug uptake in ICR mouse lung at 370 kBq/100 ul, iv at 2 mins by gamma-counting analysis
# Format: ADME, organism-based
# CONDITION LABEL: in vivo
Give bare numbers, in % ID/g.

// known answers, use as guide
smiles_str=CN(C)c1ccc(-c2nc3cc(OCC[18F])ccc3o2)cn1 endpoint_result=5.53
smiles_str=CNc1ccc(-c2nc3ccc(OCCOCCOCC[18F])cc3s2)cn1 endpoint_result=5.53
smiles_str=CN(C)c1ccc(-c2nc3ccc(OCCOCCOCC[18F])cc3s2)cn1 endpoint_result=6.69

For each of the compounds below, state Drug uptake.
1. CNc1ccc(-c2nc3ccc(OCC[18F])cc3s2)cn1
2. CN(C)c1ccc(-c2nc3cc(OCCOCCOCC[18F])ccc3o2)cn1
3. CNc1ccc(-c2nc3cc(OCCOCCOCC[18F])ccc3o2)cn1
4. CNc1ccc(-c2nc3cc(OCC[18F])ccc3o2)cn1

Response:
[5.85, 3.03, 5.3, 4.14]

----------
# PROCEDURE TEXT: n-Octanol-PBS buffer partition coefficient, log D of the compound at 1.5 MBq after 3 mins at pH 7.4
# Assay type: physicochemical
Assignment: determine reported logD at 0.05 h for the given compounds.
Give bare numbers.

// known answers, use as guide
smiles_str=CNc1ccc(-c2nc3ccc(OCC[18F])cc3s2)cn1 readout_label="logD at 0.05 h" endpoint_result=3.59
smiles_str=CN(C)c1ccc(-c2nc3cc(OCCOCCOCC[18F])ccc3o2)cn1 readout_label="logD at 0.05 h" endpoint_result=3.26
smiles_str=CN(C)c1ccc(-c2nc3cc(OCC[18F])ccc3o2)cn1 readout_label="logD at 0.05 h" endpoint_result=3.53
smiles_str=CNc1ccc(-c2nc3cc(OCCOCCOCC[18F])ccc3o2)cn1 readout_label="logD at 0.05 h" endpoint_result=2.86
smiles_str=CNc1ccc(-c2nc3ccc(OCCOCCOCC[18F])cc3s2)cn1 readout_label="logD at 0.05 h" endpoint_result=2.85
smiles_str=CNc1ccc(-c2nc3cc(OCC[18F])ccc3o2)cn1 readout_label="logD at 0.05 h" endpoint_result=3.52

Next compound, logD at 0.05 h to be filled in.
Request: In one line, give reported logD at 0.05 h of the entry CN(C)c1ccc(-c2nc3ccc(OCCOCCOCC[18F])cc3s2)cn1 .
Response: 3.08

----------
# Test system: Blood
# PROCEDURE TEXT: Drug uptake in ICR mouse blood at 370 kBq/100 ul, iv at 10 mins by gamma-counting analysis
# Format: ADME, organism-based
# CONDITION LABEL: in vivo
For each record, check the reported Drug uptake: if it is below 3 % ID/g write t, else write f.

Consider the following illustrative entries.
smiles_str=CN(C)c1ccc(-c2nc3cc(OCC[18F])ccc3o2)cn1 target_desc=Blood answer_label=t
smiles_str=CNc1ccc(-c2nc3ccc(OCC[18F])cc3s2)cn1 target_desc=Blood answer_label=f
smiles_str=CN(C)c1ccc(-c2nc3ccc(OCCOCCOCC[18F])cc3s2)cn1 target_desc=Blood answer_label=f
smiles_str=CNc1ccc(-c2nc3ccc(OCCOCCOCC[18F])cc3s2)cn1 target_desc=Blood answer_label=f

Switching to the query record.
Request: Decide: Drug uptake of CNc1ccc(-c2nc3cc(OCC[18F])ccc3o2)cn1 strictly below 3 % ID/g?
Response: t

From: ChEMBL document CHEMBL2177098
